assay: Aqueous solubility at room temperature, quantitated by HPLC; type: physicochemical; conditions: water, thermodynamic from solid, room temperature, HPLC
quantity: solubility (µg/mL)
Give the quantity in µg/mL, number only.

Query: Give reported solubility value for COCCN(C)CCOc1ccc2[nH]c(-c3cc4ccccc4[nH]c3=O)cc2c1.CS(=O)(=O)O [Salt 4-9A]
Result: 1500

----------
Assay: Solubility of free base 1-11 at room temperature in 0.05M aqueous buffers, water, organic solvents and HPβCD
Format: physicochemical
Conditions: 0.05 M carbonate buffer, pH 11.15, aqueous buffer; 0.05 M Carbonate, pHfinal 11.15, room temperature
Experimental: The solubility of 1-11 at room temperature was determined in 0.05M aqueous buffers, water and several organic solvents.
Structures can show the parent of a compound that is named as a salt.
quantity: solubility (µg/mL)
Give the quantity in µg/mL, number only.

Query: Give reported solubility value for CS(=O)(=O)N1CCN(Cc2ccc3[nH]c(-c4cc5ccccc5[nH]c4=O)cc3c2)CC1 [Salt 1-11]
Result: 77

----------
Experiment: Solubility of free base 1-11 at room temperature in 0.05M aqueous buffers, water, organic solvents and HPβCD
Assay type: physicochemical
Conditions: pH 3, aqueous with cosolvent or surfactant or cyclodextrin; 25% HPβCD, pH adjusted to ca. 3.0 with HCl
Description: The solubility of 1-11 at room temperature was determined in 0.05M aqueous buffers, water and several organic solvents.
Structures can show the parent of a compound that is named as a salt.
quantity: solubility (µg/mL)
Give the quantity in µg/mL, number only.

Query: Give reported solubility value for CS(=O)(=O)N1CCN(Cc2ccc3[nH]c(-c4cc5ccccc5[nH]c4=O)cc3c2)CC1 [Salt 1-11]
Result: 4560

----------
Assay: Solubility of free base 1-11 at room temperature in 0.05M aqueous buffers, water, organic solvents and HPβCD
Assay type: physicochemical
Conditions: 0.05 M phosphate buffer, pH 7.93, aqueous buffer; 0.05 M Phosphate, pHfinal 7.93, room temperature
Description: The solubility of 1-11 at room temperature was determined in 0.05M aqueous buffers, water and several organic solvents.
Counter-ions that a name gives are not always drawn.
quantity: solubility (mg/mL)
Give the quantity in mg/mL, number only.

Query: Give reported solubility value for CS(=O)(=O)N1CCN(Cc2ccc3[nH]c(-c4cc5ccccc5[nH]c4=O)cc3c2)CC1 [Salt 1-11]
Result: 0.074

----------
# key: entry, value: solubility
assay: Measurement of salt solubility: free base 1-11 treated with acid, suspended in water, HPLC; assay type: physicochemical; conditions: salt made in situ with 1.05-1.1 molar equivalence of acid, suspended in water several days; method overestimates the solubility
Counter-ions that a name gives are not always drawn.
Give the quantity in µg/mL, number only.

Answered examples (3):
>>> test_result("CS(=O)(=O)N1CCN(Cc2ccc3[nH]c(-c4cc5ccccc5[nH]c4=O)cc3c2)CC1 [Maleate salt of 1-11]")
160
>>> test_result("CS(=O)(=O)N1CCN(Cc2ccc3[nH]c(-c4cc5ccccc5[nH]c4=O)cc3c2)CC1 [Mesylate salt of 1-11]")
580
>>> test_result("CS(=O)(=O)N1CCN(Cc2ccc3[nH]c(-c4cc5ccccc5[nH]c4=O)cc3c2)CC1 [Acetate salt of 1-11]")
91

Query: Give reported solubility value for CS(=O)(=O)N1CCN(Cc2ccc3[nH]c(-c4cc5ccccc5[nH]c4=O)cc3c2)CC1 [HCl salt of 1-11]
Result: 430

Query: Give reported solubility value for CS(=O)(=O)N1CCN(Cc2ccc3[nH]c(-c4cc5ccccc5[nH]c4=O)cc3c2)CC1 [HBr salt of 1-11]
Result: 200

Query: Give reported solubility value for CS(=O)(=O)N1CCN(Cc2ccc3[nH]c(-c4cc5ccccc5[nH]c4=O)cc3c2)CC1 [Sulfate salt of 1-11]
Result: 130

Query: Give reported solubility value for CS(=O)(=O)N1CCN(Cc2ccc3[nH]c(-c4cc5ccccc5[nH]c4=O)cc3c2)CC1 [Besylate salt of 1-11]
Result: 3.8

----------
Experiment: Aqueous solubility at room temperature, quantitated by HPLC
Format: physicochemical
Conditions: water, room temperature, HPLC
Experimental: The free base 2-1 is a yellow powder. […] The crystals appear plate-like with most of the particles below 10 microns. […] The aqueous solubility was measured using HPLC to quantitate the compound in suspension. The mesylate salt 2-1A is a yellow powder. […] The aqueous solubility was measured using HPLC to quantitate the compound. The HCl salt 2-1B was also a yellow powder. […] The aqueous solubility was measured using HPLC to quantitate the compound. […]
Where a name gives a salt, the structure may show the parent alone.
quantity: aqueous solubility at room temperature (µg/mL)

[A] O=C(CO)N1CCN(Cc2ccc3[nH]c(-c4cc5ccccc5[nH]c4=O)cc3c2)CC1 [Salt 3-10]
[B] O=C(CO)N1CCN(Cc2ccc3[nH]c(-c4cc5ccccc5[nH]c4=O)cc3c2)CC1 [Salt 3-10A]
[C] CN1CCN(Cc2ccc3[nH]c(-c4cc5ccccc5[nH]c4=O)cc3c2)CCC1=O [Salt 2-1]
Query: Please give the order of these compounds when sorted by aqueous solubility at room temperature, largest value leading. Answer format: list of labels, ordered as asked.
Result: B, A, C
(B: 1310 µg/mL, A: 63.5 µg/mL, C: 28 µg/mL)

----------
experiment: Solubility of free base 1-11 at room temperature in 0.05M aqueous buffers, water, organic solvents and HPβCD; format: physicochemical; conditions: Water, room temperature
Structures can show the parent of a compound that is named as a salt.
quantity: solubility (µg/mL)
Give the quantity in µg/mL, number only.

Query: Give reported solubility value for CS(=O)(=O)N1CCN(Cc2ccc3[nH]c(-c4cc5ccccc5[nH]c4=O)cc3c2)CC1 [Salt 1-11]
Result: 0.03

----------
assay: Solubility of free base 1-11 at room temperature in 0.05M aqueous buffers, water, organic solvents and HPβCD; type: physicochemical; details: organic solvent or mixture; Isopropanol, room temperature
Where a name gives a salt, the structure may show the parent alone.
quantity: solubility (µg/mL)
Give the quantity in µg/mL, number only.

Query: Give reported solubility value for CS(=O)(=O)N1CCN(Cc2ccc3[nH]c(-c4cc5ccccc5[nH]c4=O)cc3c2)CC1 [Salt 1-11]
Result: 6.5

----------
assay: Solubility of free base 1-11 at room temperature in 0.05M aqueous buffers, water, organic solvents and HPβCD; type: physicochemical; settings: pH 3, aqueous with cosolvent or surfactant or cyclodextrin; 15% HPβCD, pH adjusted to ca. 3.0 with HCl
Counter-ions that a name gives are not always drawn.
quantity: solubility (µg/mL)
Give the quantity in µg/mL, number only.

Query: Give reported solubility value for CS(=O)(=O)N1CCN(Cc2ccc3[nH]c(-c4cc5ccccc5[nH]c4=O)cc3c2)CC1 [Salt 1-11]
Result: 2350

----------
test: Solubility of free base 1-11 at room temperature in 0.05M aqueous buffers, water, organic solvents and HPβCD; format: physicochemical; conditions: 0.05 M citrate buffer, pH 4.15, aqueous buffer; 0.05 M Citrate, pHfinal 4.15, room temperature
Structures can show the parent of a compound that is named as a salt.
quantity: solubility (µg/mL)
Give the quantity in µg/mL, number only.

Query: Give reported solubility value for CS(=O)(=O)N1CCN(Cc2ccc3[nH]c(-c4cc5ccccc5[nH]c4=O)cc3c2)CC1 [Salt 1-11]
Result: 73
